testedTarget: JAK2 (recombinant purified GST-tagged catalytic domain) (Homo sapiens (Human))
Sequence (O60674 849-1124): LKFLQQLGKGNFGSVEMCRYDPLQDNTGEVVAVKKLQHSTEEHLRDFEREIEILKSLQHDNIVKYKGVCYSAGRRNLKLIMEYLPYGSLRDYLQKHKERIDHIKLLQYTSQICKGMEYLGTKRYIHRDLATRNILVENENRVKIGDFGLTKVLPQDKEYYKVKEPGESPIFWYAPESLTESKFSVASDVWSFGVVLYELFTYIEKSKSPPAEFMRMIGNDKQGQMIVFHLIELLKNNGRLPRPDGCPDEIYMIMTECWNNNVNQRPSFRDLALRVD
assayExplanation: Jak Biochemical HTRF Assay (JAK2)
conditionDetails: [ATP] 8.5 μM
measuredAttribute: log10 IC50 (log10 of the value in nM)
Quick note: numbers are log10 of IC50, with nM as the unit.

Some solved cases for reference:
compound	log10 IC50
CC(C)(C)N[C@@H](c1ccc(Nc2nn([C@]3(CC#N)CCOC[C@@H]3F)c3cc[nH]c(=O)c23)cc1)C(F)(F)F (single isomer, unassigned)	-0.89
N#CC[C@]1(n2nc(Nc3ccc(Cl)cc3)c3c(=O)[nH]ccc32)CC[C@@H](N2CC(F)C2)CC1	1.30
CC(C)c1ccc(CN2CCC(CC#N)(n3nc(Nc4ccc(S(=O)(=O)N(C)C)cc4)c4c(=O)[nH]ccc43)CC2)cc1	1.52
Cc1cc(Nc2nn(C3(CC#N)CCN(C(=O)OC(C)(C)C)CC3)c3cc[nH]c(=O)c23)ccc1C(=O)N1C2CCC1COC2	-0.70
CC(C)(C)OC(=O)N1CCC(CC#N)(n2nc(Nc3ccc(S(=O)(=O)C(F)(F)F)cc3)c3c(=O)[nH]ccc32)CC1	0.90
N#CC[C@]1(n2nc(Nc3ccc(S(=O)(=O)C(F)F)cc3)c3c(=O)[nH]ccc32)CC[C@H](N2CC(F)C2)CC1	-0.96
Cc1cc(Nc2nn([C@]3(CC#N)CCCOC3)c3cc[nH]c(=O)c23)ccc1C(=O)N1CCC(C)(O)CC1	-0.06
CC(C)S(=O)(=O)c1ccc(Nc2nn(C3(CC#N)CCN(C(=O)C(C)(F)F)CC3)c3cc[nH]c(=O)c23)cc1	-0.89
CC(O)(c1ccc(Nc2nn([C@@]3(CC#N)CCCC[C@H]3F)c3cc[nH]c(=O)c23)cc1)C(F)(F)F (single isomer, unassigned) [Example 5-85]	-0.77
CC(C)(C)OC(=O)N1CCC(CC#N)(n2nc(Nc3ccc(S(=O)(=O)N4CCOCC4)cc3)c3c(=O)[nH]ccc32)CC1	-0.43

Tell me the measured log10 IC50 of Cc1cc(Nc2nn([C@]3(CC#N)CC[C@@H](C(=O)OC(C)(C)C)OC3)c3cc[nH]c(=O)c23)ccc1C(=O)N1CCSC1C (single isomer, unassigned) [Example 5-156] , please. -0.52

Tell me the measured log10 IC50 of "CC(C)(C)N1Cc2cc(Nc3nn(C4(CC#N)CCOCC4)c4cc[nH]c(=O)c34)ccc2S1(=O)=O" , please. -0.11

Tell me the measured log10 IC50 of CC(C)(C)N1Cc2cc(Nc3nn([C@@]4(CC#N)CCOC[C@H]4F)c4cc[nH]c(=O)c34)ccc2S1(=O)=O (single isomer, unassigned) , please. 0.52

Tell me the measured log10 IC50 of CN(C)S(=O)(=O)c1ccc(Nc2nn([C@@]3(CC#N)COCC[C@H]3F)c3cc[nH]c(=O)c23)cc1 (single isomer, unassigned) , please. -0.02

Tell me the measured log10 IC50 of "N#CCC1(n2nc(Nc3ccc(C#N)cc3)c3c(=O)[nH]ccc32)CCCC1" , please. 0.57

----------
Documented IC50 across a set of molecules
testedTarget: JAK1 (recombinant purified GST-tagged catalytic domain) (Homo sapiens (Human))
Sequence (P23458 875-1153): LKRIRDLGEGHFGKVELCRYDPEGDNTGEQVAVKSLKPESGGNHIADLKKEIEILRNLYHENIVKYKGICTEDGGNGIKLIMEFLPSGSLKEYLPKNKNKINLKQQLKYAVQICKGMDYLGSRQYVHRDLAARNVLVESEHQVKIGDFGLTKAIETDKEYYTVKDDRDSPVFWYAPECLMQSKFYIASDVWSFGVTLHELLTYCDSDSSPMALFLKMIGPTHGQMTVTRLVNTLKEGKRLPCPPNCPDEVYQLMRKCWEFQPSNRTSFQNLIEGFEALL
assayExplanation: Jak Biochemical HTRF Assay (JAK1)
conditionDetails: [ATP] 31.8 μM
// unit must come after the numeric part

Some solved cases for reference:
molecule	IC50
N#CC[C@]1(n2nc(Nc3ccc(S(=O)(=O)C(F)F)cc3)c3c(=O)[nH]ccc32)CC[C@H](N2CC(F)C2)CC1 [Example 18-28]	50 pM
CC(C)NC(C)(C)c1ccc(Nc2nn([C@]3(CC#N)CC[C@@H](C(=O)OC(C)(C)C)OC3)c3cc[nH]c(=O)c23)cc1 [Example 5-274]	360 pM
C[C@@H]1CCCC1OC(=O)N1CCC(CC#N)(n2nc(Nc3ccc(S(=O)(=O)N(C)C)cc3)c3c(=O)[nH]ccc32)CC1 (mixture of isomers) [Example 11-2]	380 pM
Cc1cc(Nc2nn([C@]3(CC#N)CC[C@@H](C(=O)OC(C)(C)C)OC3)c3cc[nH]c(=O)c23)ccc1C(=O)N1CCOC(C)C1 (single isomer, unassigned) [Example 20-10]	210 pM
N#CCC1(n2nc(Nc3ccc(S(=O)(=O)C(F)F)cc3)c3c(=O)[nH]ccc32)CCN(c2ccc(C#N)cn2)CC1 [Example 15-3]	250 pM

Attention now turns to another entry.
Tell me the measured IC50 of COCC(C)OC(=O)N1CCC(CC#N)(n2nc(Nc3ccc(S(=O)(=O)N(C)C)cc3)c3c(=O)[nH]ccc32)CC1 (stereo not shown) [Example 11-5] , please. 270 pM
